Data credit: the supplement of paper PMC9170038

tested on: MS2 coat protein; assay: apparent KD of MS2 coat protein; designed switch direction (-1 OFF switch, 1 ON switch): -1; higher = weaker reporter binding; settings: input ligand: FMN 200 uM
MEASURED ENDPOINT: apparent KD of MS2 coat protein (nM)
The reply should be a number in nM, with the unit left off.

Consider the following illustrative entries.
IN: Record request: apparent KD of MS2 coat protein value, item CAAGUCCUUUACUACAAGCACAUGAGGAUCACCCAUGUCAAAUUUGUGCCUCGGUACGGAAGCUCGUCUUUUCGUAG [Eternabot (L2) Solution 1] (Eterna round: R97, puzzle: Sensor, turn-off variant 1)
OUT: 30

IN: Also need AUCAGCUCGUGAGGAUAUGCACAUGAGGAUCACCCAUGUAAGAUCAAGCUGCUUCGGCAGCAAGUGCAGAAGGCACGAGCUGAU [ENG2/9-A2] (Eterna round: R96, puzzle: Exclusion NG 2) , thanks.
OUT: 186

IN: Also need AGCCAAGCAGGAUAUGCACGUAAUAACAUGAGGAUCACCCAUGUGACCGAUUUAUAUUCUGCAGAAGGGCUUGGAA [LRO-Excl5-14-mod of Erxesoan mod by Eli Fisker] (Eterna round: R97, puzzle: Exclusion 5) , thanks.
OUT: 143

***
IN: Record request: apparent KD of MS2 coat protein value, item GGGCCCGGUGUGAGGAUAUUUCGAGUGAAAGCUUGAGAGAAGGCACAUGAGGAUCACCCAUGUAAGCCGGGCCC [-36.4, -34.3 kcal, A 26%, 1bis-0] (Eterna round: R97, puzzle: Brourd's mod of Exclusion 4)
OUT: 15.1

IN: Also need AUUUAGCAAGCCAGAUCCUACAUGAGGAUCACCCAUGUAGUUCGUCUUAUUUGAAGACAACACAAAAGUGUUGUCUU [Omei Mir OFFv1 B6] (Eterna round: R97, puzzle: Sensor, turn-off variant 1) , thanks.
OUT: 15.7

---

Listing of recorded apparent KD of K4 kissing-loop reporter by entry.
tested on: K4 kissing-loop RNA reporter; test: apparent KD of K4 kissing-loop reporter; higher = weaker reporter binding; conditions: Eterna round: R107; input ligand: arginine 13.2 mM;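 note: bound reporter read as fluorescence of individual clusters on recovered sequencing chips by microscopy, with normalized cluster intensities fitted with a binding model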
The reply should be a number in µM, with the unit left off.

Consider the following illustrative entries.
IN: Record request: apparent KD of K4 kissing-loop reporter value, item UUUCUUUUUUUGAUGUUUUUUGUAUAAUGGCAGGAUAUCGUAGAUGCGAGAAGGGCUUUUAUGCGUUAUGAGUGAUGUUUGUAGG [aaxazvmullin]
OUT: 0.27

IN: Also need AAUAAAAUCACGGCCGCCACUGAAUAAUUACGAAGUAGUGAUGUUACUUCACAUAUCUUAUUUAACAGGACCGGGUGAAUAUUUA [#16 K4 Tryptophan B Exclusion] , thanks.
OUT: 0.0663

***
IN: Record request: apparent KD of K4 kissing-loop reporter value, item AUGUCUGAUAGCAGUGAUGUUGCUUCGGAUACCAGACGAGAUCAUGUCCCUUGGCAGCUGACACGGCACGUGCUAGGUUAGAUGA [whbob_Ex_Theo_A_th72]
OUT: 0.0983

IN: Also need UAAGAAUAAGUAGCAGUGAUGUUGCUACUACGAGGACCGGUACGGCCGCCACUCGAGUCCUCGAAACAUCACUGAACGAGGAAUA [(H,1)-(H,2)-(Trp1)-(Trp2)-(T)'-(H)'-(T)''] , thanks.
OUT: 0.15

IN: Also need GAGGUGGAGUGAUGUUCCACACUCGCUAGUAAGGAUAUGGCUGCUUCCAGAAGGUACCUAGAUUCAGUGUGCAUCAGUAACGUGC [theeternabot_exclusion_KL_FMN_A_4] , thanks.
OUT: 0.0963

IN: Also need GCCGUACGCAUGGAUACCAGUUGCGAAGUGAUGUUUCGGGCGAUCAAAGGAUCGCCCUACAACCCUUGGCAGCCAUGCGUACGGC , thanks.
OUT: 0.0673

IN: Also need ACCCAAGCCCAUCGCGCAGUGAUGUUGUCGCGAGGACCGGUACGGCCGCCACUCGAUAGCAGUGGCAACGUCAUCAUAAUCGAUU [theeternabot_exclusion_KL_Trp_A_50] , thanks.
OUT: 0.31

IN: Also need GGUGACAACCAGAGGUGAUGUAUAGUAUCGCGAGGACCGGUACGGCCGCCACUCGUGAAGAGAAAGGAGUGAUGUUCCGUAAUGG [Kazoo C7] , thanks.
OUT: 0.276

IN: Also need GCCGUACGCAUGGAUACCAGCAGAACUGCCCUCCCAGUGAUGUUGGGAGGAUCUUUCCUUUGCCCUUGGCAGCCAUGCGUACGGC , thanks.
OUT: 0.112

---

system: MS2 coat protein; assay: apparent KD of MS2 coat protein; designed switch direction (-1 OFF switch, 1 ON switch): 1; higher = weaker reporter binding; conditions: Eterna round: R95; input ligand: FMN 200 uM
MEASURED ENDPOINT: apparent KD of MS2 coat protein (nM)
The reply should be a number in nM, with the unit left off.

Consider the following illustrative entries.
IN: Record request: apparent KD of MS2 coat protein value, item GGAGCCGGCACCGAGGAUAUUCGUAUUAAAACAUGAGGAUCACCCAUGUAGGCCAGAAGGCCUUGGGAGAAGGCGGAUCGGCUCG [Xeonanis - 2] (puzzle: Same State 2)
OUT: 12.4

IN: Also need AUAAAACAUGAGGAUCACCCAUGUCAACAAAGUCGAGGAUAUGGGCAAAUAAAAGAAUAACCAGAAGGCGAAUAAU [salish99_ss1_r3_053] (puzzle: Same State 1) , thanks.
OUT: 46

***
IN: Record request: apparent KD of MS2 coat protein value, item GAGUGACAUGAGGAUCACCCAUGUAGAAUAGAACAAGGAUAUGUGGAAGGCGGAGGAGAGACAGAAGGUGUUGGAG [JR_SS1_Sub056] (puzzle: Same State 1)
OUT: 47.9

---

system: MS2 coat protein; assay: apparent KD of MS2 coat protein; higher = weaker reporter binding; settings: Eterna round: R107; input ligand: arginine 13.2 mM
MEASURED ENDPOINT: apparent KD of MS2 coat protein (nM)
The reply should be a number in nM, with the unit left off.

Consider the following illustrative entries.
IN: Hello, I am looking for reported apparent KD of MS2 coat protein with MS2 coat protein for GCGACCCUGAGAUCCUACGUAACGUGAACACGAGGACCGGUACGGCCGCCACUCGAGAGAACAUGAGGAUCACCCAUGUCUGAGC [e-trypA-0] . Could you help?
OUT: 17.3

IN: Also need ACACCGAAAGGUGCAUUUACCUUAUCAGAUACCAGACUUUACGUUGUCCCUUGGCAGCUGUAUCACAUGAGGAUCACCCAUGUUG [JR_SSTheophyA_Sub011] , thanks.
OUT: 19.3

IN: Also need AGAGUUAGACAAAAGUCUAGCUCACCAGAAGGAGCGUCCGAAAGGACAGGUAGGUCGCUGGUGCAUGAGGAUCACCCAUGUUCCU [ArgAS 20 #OpenEnded #AlternativeMS2] , thanks.
OUT: 26.9

IN: Also need AGAGUCUAGUCGGCCGCCACUCAUGUCCUAAGGACAUGAGGAUCACCCAUGUACCAAAGGUACAUGAGGACCGGGACUGGACUCA [Omei Tryp B SS C v1] , thanks.
OUT: 23.3

***
IN: Hello, I am looking for reported apparent KD of MS2 coat protein with MS2 coat protein for AAAGAUUCCUGAACGCCGCAUACCGAUGAUACCAGCCAACGGAAAGGCCCUUGGCAGCAUUAAACAUGAGGAUCACCCAUGUCUA [theeternabot_exclusion_MS2_Theo_A_43] . Could you help?
OUT: 11.4

IN: Also need CAUACUUUAUCCUAUGAGCCUAUUUGUGAUACCAGCAUCUAAAUUUGCCCUUGGCAGCACUUACAUGAGGAUCACCCAUGUUUUA [JR_NU_SSTheophyA_Sub028] , thanks.
OUT: 22

IN: Also need AGUGUUGUAACUGAUACCAGACCUUUGCUUAUACAUGAGGAUCACCCAUGUAAAAUGGCGGUCCCUUGGCAGCAGAGAAGACGCA [#10 Same State - Theophylline B] , thanks.
OUT: 41.5

IN: Also need UCGGACAUGAGGAUCACCCAUGUAAAUCCUCGAGGACCGGUACGGCCGCCACUCGAACGAGUGGCGCGCGAGUGCGCACUCGCGC [aFa] , thanks.
OUT: 22.2

IN: Also need AUACCUAAUGAGUCGUGUAACUUUUCAGAUACCAGACUUUUCGUUGUCCCUUGGCAGCUGUUUUACAUGAGGAUCACCCAUGUUG [JR_ExcTheophyA_Sub008] , thanks.
OUT: 14.9

IN: Also need AGUCUUAUAGGAAGGAGCGCAAUCAUAACAUGAGGAUCACCCAUGUCGAGGUGAGGGUCAUUGCAGGUAGGUCGCCUAACUAAGA [Same State - Arginine B (Freestyle 8)] , thanks.
OUT: 126

IN: Also need GCUGCUUUGGGAAGGAGCGCUGUGGUAGUGUGGCGGACAUGAGGAUCACCCAUGUGCCUGCAGCAGGUAGGUCGCUUAGGGCAGC [EAP NP+V+V2 #16] , thanks.
OUT: 37.6

IN: Also need AUGUCGUUGAAUACAGCGGCAUGGAGUGAUACCAGAAUGAUCAAAUUCCCUUGGCAGCAUCACAUGAGGAUCACCCAUGUUCGAU [SSTheo A #16] , thanks.
OUT: 22.2
